tested on: EZH2; assay: 3' UTR reporter interaction score (median-centred robust z-score of log2 firefly/Renilla activity); higher = less repression of the 3' UTR reporter; details: HEK293T; 48 h
Entries get a class label from measured 3' UTR reporter interaction score. See ranges: bottom bin (below -0.4), middle bin (-0.4 to below 0.3), top bin (0.3 or more)

Some entries whose results are on file:
* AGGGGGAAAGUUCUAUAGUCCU | bottom bin
* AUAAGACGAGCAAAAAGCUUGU | top bin
* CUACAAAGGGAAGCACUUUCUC | top bin

Class label required: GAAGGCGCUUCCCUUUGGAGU bottom bin

Similarly, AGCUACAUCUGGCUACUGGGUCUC ? middle bin

Record: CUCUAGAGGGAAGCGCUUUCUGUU middle bin

Another sequence to look at: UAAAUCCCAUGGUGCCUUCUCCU middle bin

Input GAGCCAGUUGGACAGGAGC middle bin

What do you get for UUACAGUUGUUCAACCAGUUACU ? middle bin

Lookup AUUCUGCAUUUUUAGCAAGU top bin

Lookup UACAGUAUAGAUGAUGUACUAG middle bin

Param item: CACGCUCAUGCACACACCCAC top bin

Okay, and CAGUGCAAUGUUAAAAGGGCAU ? bottom bin

Here is the next sequence: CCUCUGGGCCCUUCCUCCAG middle bin

Item: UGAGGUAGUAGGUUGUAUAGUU bottom bin
